Target: Glutathione S-transferase omega-1 (Homo sapiens)
Experiment: inhibitors of recombinant GSTO1, primary screen, counter-screen for RBBP9 inhibitor project, biochemical, fluorescence polarization (AID 1974);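 further: 0% = GSTO1-1 with DMSO and 100% = wells lacking GSTO1-1 enzyme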
Settings: recombinant GSTO1, activity-based probe fluorescence polarization; at 5.96 µM; stronger effect = higher value
In all, about 300,000 compounds went through this assay and about 3,200 (1.1%) were called active. The sample holds actives, similar compounds and a random draw of the others, so the mix is not that of the screen.
# Lookup of reported inhibition keyed by entry

MOLECULE | inhibition [%]
COc1cc2nc(N3CCN(C(=O)[C@@H]4CCCO4)CC3)nc(N)c2cc1OC | 3.62
Cc1cccc(N2C(=O)NC(=O)/C(=C\c3cnn(-c4ccccc4)c3)C2=O)c1 | -2.05
CCN1c2nc3c(C)cccn3c(=O)c2CC2(C(=O)N(C)C(=O)N(C)C2=O)C1C (centres undefined) | -4.29
COc1cc(Cn2c(N)c(C(=O)NCc3ccco3)c3nc4ccccc4nc32)cc(OC)c1OC | -1.75
CC(=O)Nc1ccccc1C(=O)OCC(=O)c1cccc2ccccc12 | -2.14
O=C(O)COc1ccccc1/C=C1\C(=O)NC(=O)N(CCC2=CCCCC2)C1=O | 41.1
N#CC1=C(N)Oc2c(c(=O)oc3ccccc23)C1c1ccccc1OC(=O)c1cccs1 (centres undefined) | -8.89
CCOC(=O)c1c(N)n(CCN2CCOCC2)c2nc3ccccc3nc12 | -0.71
O=C1NC(=O)N(CCc2ccc(F)cc2)C(=O)/C1=C/C=C/c1ccccc1 | -7.53
